Test system: HepG2 cells
Settings: human, 24 h
property: MEC MMP
Answer with the value's number alone.

Input line: Give the measured MEC MMP of CC(C)C(=O)Nc1ccc([N+](=O)[O-])c(C(F)(F)F)c1 [Flutamide] .
Output line: 500

Input line: Give the measured MEC MMP of Cc1c(C)c2c(c(C)c1O)CCC(C)(COc1ccc(CC3SC(=O)NC3=O)cc1)O2 (stereo not shown) .
Output line: 200

Input line: Give the measured MEC MMP of `O=C(O)Cc1ccccc1Nc1c(Cl)cccc1Cl` .
Output line: 250

Input line: Give the measured MEC MMP of `CC(=O)Nc1ccc(O)cc1` .
Output line: 15

Input line: Give the measured MEC MMP of C1CCC(C(CC2CCCCN2)C2CCCCC2)CC1 (stereo not shown) .
Output line: 22.5

----------
Tested on: HepG2 cells co-transduced with AdCYP2E1, CYP1A2 and AdGSTM1
Assay: HCS hepatotoxicity assay (MEC, TR), AdCYP2E1 + AdCYP1A2 + AdGSTM1 HepG2
Format: cell-based, human
Details: CYP2E1-1X + CYP1A2-1X + GSTM1; 24 h; unit inferred, tested range in mM
property: MEC Calcium
Kindly format the answer as number then unit.

Input line: Give the measured MEC Calcium of `CC(=O)Nc1ccc(O)cc1` .
Output line: 15 mM

----------
System: HepG2 cells co-transduced with AdCYP2E1 and AdGSTM1
Assay: HCS hepatotoxicity assay (MEC, TR), AdCYP2E1 + AdGSTM1 HepG2
Type: cell-based, human
Conditions: CYP2E1-10X + GSTM1; 24 h; unit inferred, tested range in mM
property: MEC ROS

Input line: Give the measured MEC ROS of `NNC(=O)c1ccncc1` .
Output line: > 50 mM

----------
Test system: HepG2 cells transduced with AdCYP2B6
Test: Cell viability (PI), IC50, AdCYP2B6-HepG2
Assay type: cell-based
Conditions: Homo sapiens, ADV CYP2B6 x10, 24 h, unit inferred, tested range in µM, read-out: IC50 (cell viability), ADV dose x10
property: IC50 (µM)
Your answer should be a plain number; it is taken to be in µM.

Input line: Give the measured IC50 of `CCCC(CCC)C(=O)O` .
Output line: 8700

----------
Test system: HepG2 cells transduced with AdCYP1A2
Experiment: HCS hepatotoxicity assay (MEC, TR), AdCYP1A2-HepG2
Type: cell-based, human
Settings: AdCYP 1A2 10x; 24 h; unit inferred, tested range in µM
property: MEC Mitochondrial superoxide (µM)
Your answer should be a plain number; it is taken to be in µM.

Input line: Give the measured MEC Mitochondrial superoxide of CC(C)C(=O)Nc1ccc([N+](=O)[O-])c(C(F)(F)F)c1 [Flutamide] .
Output line: 50

----------
System: HepG2 cells transduced with AdCYP2D6
Assay: HCS hepatotoxicity assay (MEC, TR), AdCYP2D6-HepG2
Type: cell-based, human
Settings: AdCYP 2D6 4x; 24 h; unit inferred, tested range in µM
property: MEC Calcium (µM)
Your answer should be a plain number; it is taken to be in µM.

Input line: Give the measured MEC Calcium of C1CCC(C(CC2CCCCN2)C2CCCCC2)CC1 (stereo not shown) [Perhexiline] .
Output line: 12.5

----------
Test system: HepG2 cells transduced with AdCYP2C9
Assay: HCS hepatotoxicity assay (MEC, TR), AdCYP2C9-HepG2
Type: cell-based, human
Details: AdCYP 2C9 1x; 24 h; unit inferred, tested range in µM
property: MEC ROS (µM)
Your answer should be a plain number; it is taken to be in µM.

Input line: Give the measured MEC ROS of `O=C(O)COc1ccc(C(=O)c2cccs2)c(Cl)c1Cl` .
Output line: 800

----------
System: HepG2 cells co-transduced with AdCYP2E1 and AdCYP1A2
Assay: HCS hepatotoxicity assay (MEC, TR), AdCYP2E1 + AdCYP1A2 HepG2
Assay type: cell-based, human
Conditions: CYP2E1-4X + CYP1A2-4X; 24 h; unit inferred, tested range in mM
property: MEC Apoptosis (mM)
Your answer should be a plain number; it is taken to be in mM.

Input line: Give the measured MEC Apoptosis of CC(=O)Nc1ccc(O)cc1 [Acetaminophen] .
Output line: 0.5

----------
Tested on: HepG2 cells transduced with AdCYP2C9
Assay: Cell viability (PI), IC50, AdCYP2C9-HepG2
Assay type: cell-based
Conditions: Homo sapiens, ADV CYP2C9 x10, 24 h, unit inferred, tested range in µM, read-out: IC50 (cell viability), ADV dose x10
property: IC50

Input line: Notebook: pull reported IC50 for HepG2 cells transduced with AdCYP2C9, entry `O=C(O)Cc1ccccc1Nc1c(Cl)cccc1Cl`
Output line: 15.5 µM

Input line: Notebook: pull reported IC50 for HepG2 cells transduced with AdCYP2C9, entry `O=C(O)COc1ccc(C(=O)c2cccs2)c(Cl)c1Cl`
Output line: 846 µM

----------
Tested on: HepG2 cells
Conditions: human, 24 h
So basically: MEC Calcium at 100 or higher? That is Met. Lower than 100? That is Not met.

Input line: Evaluate O=C(O)COc1ccc(C(=O)c2cccs2)c(Cl)c1Cl [Tienilic acid] : MEC Calcium at minimum 100?
Output line: Met

Input line: Evaluate CC(=O)Nc1ccc(O)cc1 [Acetaminophen] : MEC Calcium at minimum 100?
Output line: Not met

Input line: Evaluate C1CCC(C(CC2CCCCN2)C2CCCCC2)CC1 (stereo not shown) [Perhexiline] : MEC Calcium at minimum 100?
Output line: Not met

Input line: Evaluate NNC(=O)c1ccncc1 [Isoniazid] : MEC Calcium at minimum 100?
Output line: Not met

Input line: Evaluate O=C(O)Cc1ccccc1Nc1c(Cl)cccc1Cl [Diclofenac] : MEC Calcium at minimum 100?
Output line: Not met

Input line: Evaluate CC(C)C(=O)Nc1ccc([N+](=O)[O-])c(C(F)(F)F)c1 [Flutamide] : MEC Calcium at minimum 100?
Output line: Met

----------
System: HepG2 cells co-transduced with AdCYP2E1, CYP1A2 and AdGSTM1
Assay: HCS hepatotoxicity assay (MEC, TR), AdCYP2E1 + AdCYP1A2 + AdGSTM1 HepG2
Assay type: cell-based, human
Conditions: CYP2E1-4X + CYP1A2-4X + GSTM1; 24 h; unit inferred, tested range in mM
property: MEC MMP

Input line: Notebook: pull reported MEC MMP for HepG2 cells co-transduced with AdCYP2E1, CYP1A2 and AdGSTM1, entry `CC(=O)Nc1ccc(O)cc1`
Output line: 10 mM

----------
Test system: HepG2 cells transduced with AdCYP1A2
Experiment: HCS hepatotoxicity assay (MEC, TR), AdCYP1A2-HepG2
Format: cell-based, human
Details: AdCYP 1A2 1x; 24 h; unit inferred, tested range in µM
property: MEC Mitochondrial superoxide (µM)
Your answer should be a plain number; it is taken to be in µM.

Input line: Give the measured MEC Mitochondrial superoxide of CC(C)C(=O)Nc1ccc([N+](=O)[O-])c(C(F)(F)F)c1 [Flutamide] .
Output line: 75

----------
Test system: HepG2 cells transduced with AdCYP2C19
Assay: HCS hepatotoxicity assay (MEC, TR), AdCYP2C19-HepG2
Type: cell-based, human
Details: AdCYP 2C19 4x; 24 h; unit inferred, tested range in µM
property: MEC Mitochondrial superoxide (µM)
Your answer should be a plain number; it is taken to be in µM.

Input line: Give the measured MEC Mitochondrial superoxide of CC(C)C(=O)Nc1ccc([N+](=O)[O-])c(C(F)(F)F)c1 [Flutamide] .
Output line: 250

----------
System: HepG2 cells co-transduced with AdCYP2E1 and AdCYP1A2
Test: HCS hepatotoxicity assay (MEC, TR), AdCYP2E1 + AdCYP1A2 HepG2
Assay type: cell-based, human
Conditions: CYP2E1-4X + CYP1A2-4X; 24 h; unit inferred, tested range in mM
property: MEC Calcium (mM)
Your answer should be a plain number; it is taken to be in mM.

Input line: Give the measured MEC Calcium of CC(=O)Nc1ccc(O)cc1 [Acetaminophen] .
Output line: 0.5

----------
System: HepG2 cells transduced with AdCYP2C9
Test: HCS hepatotoxicity assay (MEC, TR), AdCYP2C9-HepG2
Assay type: cell-based, human
Settings: AdCYP 2C9 1x; 24 h; unit inferred, tested range in µM
Protocol: For subculturing purposes, cells were detached by treatment with 0.25% trypsin/0.02% EDTA at 37 °C. For the adenovirus infection studies, cells were seeded in 96-well plates (5000 cells/well) and adenovirus-containing medium was added 48 h later. […] The drugs included in the study were chosen based on previous information about their hepatotoxicity. […] Each experimental condition was repeated independently three times (with three wells measured each time). […]
property: MEC Apoptosis (µM)
Your answer should be a plain number; it is taken to be in µM.

Input line: Give the measured MEC Apoptosis of O=C(O)COc1ccc(C(=O)c2cccs2)c(Cl)c1Cl [Tienilic acid] .
Output line: 600
